Molecular target: MEK1 (Homo sapiens)
Sequence (Q02750 whole entry): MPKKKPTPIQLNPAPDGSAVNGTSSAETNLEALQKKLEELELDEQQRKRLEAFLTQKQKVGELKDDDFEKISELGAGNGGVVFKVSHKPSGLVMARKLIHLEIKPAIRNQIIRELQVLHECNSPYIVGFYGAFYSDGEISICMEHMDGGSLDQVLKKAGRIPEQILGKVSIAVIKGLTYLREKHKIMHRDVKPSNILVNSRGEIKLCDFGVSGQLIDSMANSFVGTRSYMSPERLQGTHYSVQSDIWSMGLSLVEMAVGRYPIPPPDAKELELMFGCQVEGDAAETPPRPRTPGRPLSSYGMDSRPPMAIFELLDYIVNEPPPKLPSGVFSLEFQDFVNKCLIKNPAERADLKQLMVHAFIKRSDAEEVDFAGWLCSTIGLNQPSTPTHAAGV
pIC50: −log10 of the molar value.
VALUE_KIND: pIC50

>>> df
                                   compound  experimental_value
0  NC[C@H](O)CCOc1cc(F)cc(Nc2ccc(I)cc2F)c1C(N)=O              > 6.60
1  NC(=O)c1c(Nc2ccc(Br)cc2F)cc(F)cc1OCC[C@@H](O)CO              > 6.00
2  NC(=O)c1c(Nc2ccc(I)cc2F)cc(Cl)cc1OCC[C@@H](O)CO              > 6.00
3  NC(=O)c1c(Nc2ccc(I)cc2F)cc(F)cc1Oc1cccc(NS(N)(=O)=O)c1              > 6.60
4  CS(=O)(=O)N1CCCCC1CCOc1cc(F)cc(Nc2ccc(I)cc2F)c1C(N)=O (centres unmarked)              > 6.00
5  CC(C)(O)C(O)CCOc1cc(F)cc(Nc2ccc(I)cc2F)c1C(N)=O (centres unmarked)              > 6.60
6  NC(=O)c1c(Nc2ccc(I)cc2F)cc(F)cc1O[C@@H]1C[C@@H](O)[C@@H](O)C1              > 6.60
7  NC(=O)c1c(Nc2ccc(I)cc2F)cc(F)cc1OCCc1cccnc1              > 6.60
